system: antibodies in sera from SARS patients (sera 1a, 1b, 2, 6, 37, 62, London, SARS-yellow, SARS-green); type: binding, human
Listing of entries alongside the reported Binding of serum 1a to looped/cyclic peptides of protein X4 of SARS-CoV Urbani.
MEASUREMENT_TYPE: Binding of serum 1a to looped/cyclic peptides of protein X4 of SARS-CoV Urbani

>>> readout_value("TLIVFTSCELYHYQE")
0.8
>>> readout_value("IILFLTLIVFTSCEL")
0.7
>>> readout_value("QQELYSPLFLIVAAL")
0.7
>>> readout_value("KEPCPSGTYEGNSPF")
0.8
>>> readout_value("LIVFTSCELYHYQEC")
0.8
>>> readout_value("KFALTCTSTHFAFAC")
1.0
>>> readout_value("HTYQLRARSVSPKLF")
0.8
>>> readout_value("LFIRQEEVQQELYSP")
0.7

----------
system: antibodies in sera from SARS patients (sera 1a, 1b, 2, 6, 37, 62, London, SARS-yellow, SARS-green); type: binding, human; parameters: unit not given here
MEASUREMENT_TYPE: Binding of serum 1b to looped/cyclic peptides of protein N of SARS-CoV Urbani

>>> readout_value("IGMEVTPSGTWLTYH")
0.3
>>> readout_value("KMKELSPRWYFYYLG")
0.2
>>> readout_value("YGANKEGIVWVATEG")
0.3
>>> readout_value("PPTEPKKDKKKKTDE")
0.1
>>> readout_value("DNNQNGGRNGARPKQ")
0.2
>>> readout_value("TPKDHIGTRNPNNNA")
0.3
>>> readout_value("SLPYGANKEGIVWVA")
0.2
>>> readout_value("TALALLLLDRLNQLE")
0.3
>>> readout_value("YRRATRRVRGGDGKM")
0.1
>>> readout_value("RFPRGQGVPINTNSG")
0.2
>>> readout_value("KGQQQQGQTVTKKSA")
0.1

----------
Property: Binding of Control serum Blood-bank to linear peptides; scope: individual sequences
system: control sera (pooled serum of ten healthy LUMC hospital workers; commercial negative donor pooled serum from the Dutch bloodbank); assay type: binding, human; parameters: unit not given here
MEASUREMENT_TYPE: Binding of Control serum Blood-bank to linear peptides

>>> readout_value("FQFICNLLLLFVTIY")
0.5
>>> readout_value("ASLPYGANKEGIVWV")
0.7
>>> readout_value("GPEASLPYGANKEGI")
0.9
>>> readout_value("VSGKGQQQQGQTVTK")
1.0
>>> readout_value("MSLYMAISPKFTTSL")
0.7
>>> readout_value("VLKMLHSSSLTSLLK")
0.7
>>> readout_value("NAATVLQLPQGTTLP")
0.7
>>> readout_value("QIQLSLLKVTAFQHQ")
0.4
>>> readout_value("QLESTQITTDTGIEN")
0.3
>>> readout_value("TTVYHTTVSQIQLSL")
0.6
>>> readout_value("LYMAISPKFTTSLSL")
0.6
>>> readout_value("GARPKQRRPQGLPNN")
0.7
>>> readout_value("KRTATKQYNVTQAFG")
0.7
>>> readout_value("GTTVLLKEPCPSGTY")
0.7
>>> readout_value("NPNNNAATVLQLPQG")
0.9
>>> readout_value("QRSAPRITFGGPTDS")
0.6
>>> readout_value("MKIILFLTLIVFTSC")
0.6
>>> readout_value("LALLLLDRLNQLESK")
0.7
>>> readout_value("IYFLQCINACRIIMR")
0.7
>>> readout_value("NNTASWFTALTQHGK")
0.6
>>> readout_value("GKGQQQQGQTVTKKS")
0.9
>>> readout_value("FVCWHTHNYDYCIPY")
0.6
>>> readout_value("ANPAMDPIYDEPTTT")
0.4
>>> readout_value("PQGTTLPKGFYAEGS")
0.7
>>> readout_value("YQIGGYSEDRHSGVK")
0.3
>>> readout_value("LQLPQGTTLPKGFYA")
1.0
>>> readout_value("DGISTPKLKEDYQIG")
0.5
>>> readout_value("YKGFQFICNLLLLFV")
1.0
>>> readout_value("GKMKELSPRWYFYYL")
0.6
>>> readout_value("EGHQTAAFRDVLVVL")
0.7
>>> readout_value("HNYDYCIPYNSVTDT")
0.3
>>> readout_value("EAQFLYLYALIYFLQ")
0.3
>>> readout_value("LNKRWQLALYKGFQF")
0.8
>>> readout_value("PKDHIGTRNPNNNAA")
0.8
>>> readout_value("EGDGISTPKLKEDYQ")
0.2
>>> readout_value("YHITVSQIQLSLLKV")
0.6
>>> readout_value("RCWLGWKCKSKNPLL")
1.2
